// provenance: ChEMBL document CHEMBL1121752

# Species on record: Rattus norvegicus
# experimental_details: Compound was evaluated for the inhibition of [125I]-labeled D-mannose-bovine serum albumin binding to alveolar macrophages at 100 uM
measurement_kind: inhibition (%)

INSERT INTO results (compound, measured) VALUES
  ('NCCCCCCNC(=O)C(CCCCNC(=O)CCSC1OC(CO)C(O)C(O)C1O)NC(=O)[C@@H](CCCCNC(=O)CCSC1OC(CO)C(O)C(O)C1O)NC(=O)CCSC1OC(CO)C(O)C(O)C1O (stereo not given in full)', 5),
  ('O=C(CCSC1OC(CO)C(O)C(O)C1O)NCCCCC(NC(=O)[C@@H](CCCCNC(=O)CCSC1OC(CO)C(O)C(O)C1O)NC(=O)CCSC1OC(CO)C(O)C(O)C1O)C(=O)O (stereo in doubt; 14)', 89),
  ('O=C(CSC1OC(CO)C(O)C(O)C1O)NCCCCC(NC(=O)[C@@H](CCCCNC(=O)CSC1OC(CO)C(O)C(O)C1O)NC(=O)CSC1OC(CO)C(O)C(O)C1O)C(=O)O (stereo not given in full)', 81),
  ('O=C(CCSC1OC(CO)C(O)C(O)C1O)NCCCCC(NC(=O)[C@@H](CCCCNC(=O)CCSC1OC(CO)C(O)C(O)C1O)NC(=O)CCSC1OC(CO)C(O)C(O)C1O)C(=O)O (stereo in doubt; 31)', 2),
  ('CC1OC(SCCC(=O)NCCCCC(NC(=O)[C@@H](CCCCNC(=O)CCSC2OC(C)C(O)C(O)C2O)NC(=O)CCSC2OC(C)C(O)C(O)C2O)C(=O)O)C(O)C(O)C1O (stereo not given in full)', 45);

----------
Reported inhibition values for a set of compounds
# Organism: Rattus norvegicus
# experimental_details: Compound was evaluated for the inhibition of [125I]-labeled D-mannose-bovine serum albumin binding to alveolar macrophages at 10 uM
measurement_kind: inhibition (%)

INSERT INTO assay_data (compound, measurement_kind, measured) VALUES
  ('CC1OC(SCCC(=O)NCCCCC(NC(=O)[C@@H](CCCCNC(=O)CCSC2OC(C)C(O)C(O)C2O)NC(=O)CCSC2OC(C)C(O)C(O)C2O)C(=O)O)C(O)C(O)C1O (some centres undefined)', 'inhibition', 9),
  ('O=C(CSC1OC(CO)C(O)C(O)C1O)NCCCCC(NC(=O)[C@@H](CCCCNC(=O)CSC1OC(CO)C(O)C(O)C1O)NC(=O)CSC1OC(CO)C(O)C(O)C1O)C(=O)O (some centres undefined)', 'inhibition', 27),
  ('O=C(CCSC1OC(CO)C(O)C(O)C1O)NCCCCC(NC(=O)[C@@H](CCCCNC(=O)CCSC1OC(CO)C(O)C(O)C1O)NC(=O)CCSC1OC(CO)C(O)C(O)C1O)C(=O)O (stereo in doubt; 31)', 'inhibition', 0),
  ('O=C(CCSC1OC(CO)C(O)C(O)C1O)NCCCCC(NC(=O)[C@@H](CCCCNC(=O)CCSC1OC(CO)C(O)C(O)C1O)NC(=O)CCSC1OC(CO)C(O)C(O)C1O)C(=O)O (stereo in doubt; 14)', 'inhibition', 43);

----------
# experimental_details: Compound was evaluated for the inhibition of [125I]-labeled D-mannose-bovine serum albumin binding to alveolar macrophages
# Parameters: species or system Rattus norvegicus
pKi: −log10 of the molar value.
measurement_kind: pKi

INSERT INTO assay_data (compound, measurement_kind, measured) VALUES
  ('CC(C)CCCC(C)C1CCC2C3CC=C4CC(OCCCCCCNC(=O)C(CCCCNC(=O)CCSC5OC(CO)C(O)C(O)C5O)NC(=O)[C@@H](CCCCNC(=O)CCSC5OC(CO)C(O)C(O)C5O)NC(=O)CCSC5OC(CO)C(O)C(O)C5O)CCC4(C)C3CCC12C (some centres undefined)', 'pKi', 5.40),
  ('NCCCCCCNC(=O)C(CCCCNC(=O)CCSC1OC(CO)C(O)C(O)C1O)NC(=O)[C@@H](CCCCNC(=O)CCSC1OC(CO)C(O)C(O)C1O)NC(=O)CCSC1OC(CO)C(O)C(O)C1O (some centres undefined)', 'pKi', 5.10),
  ('N/C(CSC1OC(CO)C(O)C(O)C1O)=N\CCCC[C@@H](/N=C(\N)CSC1OC(CO)C(O)C(O)C1O)C(=O)O (some centres undefined)', 'pKi', 4.00),
  ('O=C(CCSC1OC(CO)C(O)C(O)C1O)NCCCC[C@@H](NC(=O)CCSC1OC(CO)C(O)C(O)C1O)C(=O)O (some centres undefined)', 'pKi', 5.21),
  ('CC(=O)C(CCCC/N=C(/N)CSC1OC(CO)C(O)C(O)C1O)NC(=O)[C@@H](CCCC/N=C(\N)CSC1OC(CO)C(O)C(O)C1O)/N=C(\N)CSC1OC(CO)C(O)C(O)C1O (some centres undefined)', 'pKi', 5.22),
  ('O=C(CCSC1OC(CO)C(O)C(O)C1O)NCCCCC(NC(=O)[C@@H](CCCCNC(=O)CCSC1OC(CO)C(O)C(O)C1O)NC(=O)CCSC1OC(CO)C(O)C(O)C1O)C(=O)O (stereo in doubt; 14)', 'pKi', 5.41),
  ('O=C(CCSC1OC(CO)C(O)C(O)C1O)NCCCC[C@H](NC(=O)CCSC1OC(CO)C(O)C(O)C1O)C(=O)O (some centres undefined)', 'pKi', 5.11),
  ('O=C(CCSC1OC(CO)C(O)C(O)C1O)NCCCCC(NC(=O)C(CCCCNC(=O)CCSC1OC(CO)C(O)C(O)C1O)NC(=O)[C@@H](CCCCNC(=O)CCSC1OC(CO)C(O)C(O)C1O)NC(=O)CCSC1OC(CO)C(O)C(O)C1O)C(=O)O (some centres undefined)', 'pKi', 5.44),
  ('O=C(CCSC1OC(CO)C(O)C(O)C1O)NCCCCC(NC(=O)[C@@H](CCCCNC(=O)CCSC1OC(CO)C(O)C(O)C1O)NC(=O)CCSC1OC(CO)C(O)C(O)C1O)C(=O)NCCCCCCNC(=O)CCc1ccc(O)cc1 (some centres undefined)', 'pKi', 5.03);
